Reported pIC50 for target or system Cholinesterase (Homo sapiens, UniProt P06276), by entry.
pIC50: −log10 of the molar value.
result.type: pIC50

1. O=C(COc1ccc(Cl)cc1[N+](=O)[O-])NCC1CCN(Cc2ccccc2)CC1; 5.33
2. O=C(COc1ccc(Cl)cc1)NCCN1CCN(Cc2ccccc2)CC1; 5.67
3. O=C(COc1ccc(-c2ccccc2)cc1)NCC1CCN(Cc2ccccc2)CC1; 5.25
4. Cc1cc(Br)cc(C)c1OCC(=O)NCCN1CCN(Cc2ccccc2)CC1; 5.39
5. O=C(COc1ccc(Cl)cc1)NCC1CCN(Cc2ccccc2)CC1; 5.25
